Target: Hamster-A1 (DDT1 MF-2) (Mesocricetus auratus, UniProt A0A1U8BVR4)
Sequence (A0A1U8BVR4 1-326): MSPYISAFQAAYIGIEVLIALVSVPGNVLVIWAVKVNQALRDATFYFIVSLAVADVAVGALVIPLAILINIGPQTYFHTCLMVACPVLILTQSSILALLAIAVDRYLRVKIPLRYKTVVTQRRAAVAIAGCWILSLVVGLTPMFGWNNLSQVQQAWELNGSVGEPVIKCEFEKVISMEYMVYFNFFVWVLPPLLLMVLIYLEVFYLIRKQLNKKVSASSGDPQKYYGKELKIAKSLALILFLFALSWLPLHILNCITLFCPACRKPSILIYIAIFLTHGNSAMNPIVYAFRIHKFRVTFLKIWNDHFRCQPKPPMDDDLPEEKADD
Experiment: Radioligand binding, hamster A1 AdoR, DDT1 MF-2 membranes
reportedProperty: Ki (nM)
# output: bare number, implied unit nM

Report Ki for Cn1c(-c2ccc(O)cc2)nc2c(NC3CCCC3)ncnc21 please.
4

Hey, just so you know, these numbers are from patent US7517888B2.
